// data source = ChEMBL document CHEMBL3433997

system under test: Hexose transporter 1 (Plasmodium falciparum)
test summary: ST_JUDE_LEISH: Cytotoxicity at 2uM final concentration against transgenic Leishmania Mexicana promastigotes LmPfHT that are glucose transport deficient and complemented with the Plasmodium falciparum hexose transporter. Activity is measured by DNA content using SYBR green in vitro
Type: functional
inhibition of 4% or higher: class 1. Under 4%: class 0.

>  <molecule>
Cc1cccc2nc(-c3ccc(-c4cccc(CNCC5CCCO5)c4)cc3)[nH]c12 (centres undefined)

>  <class name>
class 1

$$$$
>  <molecule>
O=C(NC1CCN(CCN2CCC(c3cn(CCO)c4ccccc34)CC2)CC1)c1ccc(-c2ccc(C(F)(F)F)cc2)cc1

>  <class name>
class 0

$$$$
>  <molecule>
Cc1cc(=O)c(-c2ccc(OCc3ccc(OC(F)(F)F)cc3)cc2)c(C)[nH]1

>  <class name>
class 1

$$$$
>  <molecule>
CCCCCCCN1CC[C@@H](CCCc2ccnc3ccc(OCCN4CCNCC4)cc23)[C@@H](CC)C1

>  <class name>
class 1

$$$$
>  <molecule>
COc1ccc(CNc2nc(NCCc3ccccc3)c3cc(OC)c(OC)cc3n2)cc1OC

>  <class name>
class 0

$$$$
>  <molecule>
NC(=O)c1cnc2cc(-c3ccoc3)ccc2c1Nc1ccc(NC(=O)Nc2ccccc2Cl)cc1

>  <class name>
class 0

$$$$
>  <molecule>
COc1cc(OCCCN(C)Cc2ccc(OC)c(OC)c2)ccc1NC(=O)c1cccc2c(O)c3cccc(F)c3nc12

>  <class name>
class 0

$$$$
>  <molecule>
COc1ccccc1C1CCN(C2CCC(NC(=O)/C=C/c3cccc(Cl)c3F)CC2)CC1 (centres undefined)

>  <class name>
class 0

$$$$
>  <molecule>
CC(C)NCc1cccc(-c2cccc(NC(=O)c3cccc(C#N)c3)c2)c1

>  <class name>
class 1

$$$$

====

inhibition reference
system under test: Hexose transporter 1 (Plasmodium falciparum) (UniProt O97467)
test summary: ST_JUDE_LEISH: Cytotoxicity at 2uM final concentration against transgenic Leishmania Mexicana promastigotes LmPfHT that are glucose transport deficient and complemented with the Plasmodium falciparum hexose transporter. Activity is measured by DNA content using SYBR green in vitro
Assay type: functional

>  <compound>
Cc1cccc2nc(-c3cccc(-c4cccc(CNCc5cccc(N)c5)c4)c3)[nH]c12

>  <system under test>
Hexose transporter 1 (Plasmodium falciparum) (UniProt O97467)

>  <inhibition / %>
2.66

$$$$
>  <compound>
FC(F)(F)c1ccc2c(NCCNc3ccnc4cc(C(F)(F)F)ccc34)ccnc2c1

>  <system under test>
Hexose transporter 1 (Plasmodium falciparum) (UniProt O97467)

>  <inhibition / %>
0.31

$$$$
>  <compound>
CN(C)CC(=O)Nc1ccc(Nc2nccc(NCC(O)c3ccccc3)n2)cc1 (centres undefined)

>  <system under test>
Hexose transporter 1 (Plasmodium falciparum) (UniProt O97467)

>  <inhibition / %>
2.79

$$$$
>  <compound>
Cc1cccc2nc(-c3cccc(-c4ccc(CNCCCN5CCCC5=O)cc4)c3)[nH]c12

>  <system under test>
Hexose transporter 1 (Plasmodium falciparum) (UniProt O97467)

>  <inhibition / %>
6.82

$$$$
>  <compound>
O=C(NC1CC1)c1ccc(Cn2c(SCc3cccc([N+](=O)[O-])c3)nc3ccccc3c2=O)cc1

>  <system under test>
Hexose transporter 1 (Plasmodium falciparum) (UniProt O97467)

>  <inhibition / %>
0.54

$$$$
>  <compound>
CCCNc1ccc2nccc(CCN3CCC(NCc4ccc5c(n4)NC(=O)CS5)CC3)c2n1

>  <system under test>
Hexose transporter 1 (Plasmodium falciparum) (UniProt O97467)

>  <inhibition / %>
2.84

$$$$
>  <compound>
O=C(Nc1cccc(-c2ccc(-c3nc4cc(F)ccc4[nH]3)cc2)c1)c1ccncc1

>  <system under test>
Hexose transporter 1 (Plasmodium falciparum) (UniProt O97467)

>  <inhibition / %>
2.3

$$$$
>  <compound>
N[C@@H](Cc1cc(I)c(Oc2ccc(O)c(C(=O)O)c2)c(I)c1)C(=O)O

>  <system under test>
Hexose transporter 1 (Plasmodium falciparum) (UniProt O97467)

>  <inhibition / %>
3.91

$$$$
>  <compound>
O=C(Nc1ccc(C(=O)OCC(c2ccccc2)c2ccccc2)cc1)N[C@@H](Cc1ccc(O)cc1)C(=O)NC1CCN(Cc2ccc(O)cc2)C1 (some centres undefined)

>  <system under test>
Hexose transporter 1 (Plasmodium falciparum) (UniProt O97467)

>  <inhibition / %>
-1.74

$$$$

====

In this section, each of the compounds is paired with its reported inhibition.
system under test: Glucose transporter (Leishmania mexicana) (UniProt O61059)
test summary: ST_JUDE_LEISH: Cytotoxicity at 2uM final concentration against transgenic Leishmania Mexicana promastigotes LmGT2 that are glucose transport deficient and complemented with the L. Mexicana glucose transporter 2. Activity is measured by DNA content using SYBR green in vitro
Type: functional

>  <compound>
CCOC(=O)c1cnc2cc(N3CCCC3)c(Cl)cc2c1OCC

>  <inhibition [%]>
0.52

$$$$
>  <compound>
N#Cc1cncc(-c2nc3c(N4CCC(Cc5ccccc5)CC4)cccc3n2C2CCNC2)c1 (centres undefined)

>  <inhibition [%]>
-0.61

$$$$
>  <compound>
CCCC(C)Nc1nc(C)cc(N[C@@H](CC(C)C)C(=O)NCCc2ccccc2)n1 (some centres undefined)

>  <inhibition [%]>
8.06

$$$$
>  <compound>
Cc1nc(C)c(-c2ccc(Oc3ccc(Cl)cc3Cl)cc2)c(O)c1Br

>  <inhibition [%]>
0.66

$$$$
>  <compound>
COc1ccc(C(=O)N2CCc3cc4nccc(N5CCN6CCC[C@H]6C5)c4cc32)cc1

>  <inhibition [%]>
4.3

$$$$
>  <compound>
CCCCN1CCN(c2cc(NS(=O)(=O)c3cccc(C(=O)Nc4ccc(C(F)(F)F)cc4)c3)ccc2OC)CC1

>  <inhibition [%]>
-1.22

$$$$
>  <compound>
Cc1cc2c(cc1C(F)(F)F)N(C(=O)Nc1ccc(C(=O)NCCN3CCCC3)cc1)CC2

>  <inhibition [%]>
-0.08

$$$$
>  <compound>
CC(=O)Nc1cccc(NC(=O)CSc2ccc(-c3nc4ccccc4[nH]3)cn2)c1

>  <inhibition [%]>
-0.27

$$$$
>  <compound>
Cc1nc(C(=O)N2CCCC[C@H]2CNC(=O)c2ccc(-c3ccc(N4CCCC4=O)cc3C)cc2)c(-c2ccc(F)cc2)s1

>  <inhibition [%]>
4.58

$$$$

====

# reported inhibition; entries follow
system under test: Glucose transporter (Leishmania mexicana)
test summary: ST_JUDE_LEISH: Cytotoxicity at 2uM final concentration against transgenic Leishmania Mexicana promastigotes LmGT2 that are glucose transport deficient and complemented with the L. Mexicana glucose transporter 2. Activity is measured by DNA content using SYBR green in vitro
Format: functional
property name: inhibition (%)

>  <compound>
CCc1ccc(C2CCN(CCCCNC(=O)c3ccc(NC(=O)c4ccc(Cl)cc4)cc3)CC2)c(OC(C)=O)c1

>  <property name>
inhibition

>  <readout units>
%

>  <observed result>
3.54

$$$$
>  <compound>
Cc1[nH]c(C)c(-c2ccc(CCc3cccc(C(F)(F)F)c3)nc2)c(=O)c1Cl

>  <property name>
inhibition

>  <readout units>
%

>  <observed result>
0.88

$$$$
>  <compound>
FC(F)(F)c1ccc2[nH]c(-c3ccc(-c4ccc(CNCc5cnn(-c6ccccc6)n5)cc4)s3)nc2c1

>  <property name>
inhibition

>  <readout units>
%

>  <observed result>
2.24

$$$$
>  <compound>
O=C(Nc1ccccc1)Nc1cccc(-c2nn3c(OCC4CCCCN4)cccc3c2-c2ccncc2)c1 (centres undefined)

>  <property name>
inhibition

>  <readout units>
%

>  <observed result>
1.3

$$$$
>  <compound>
O=C(CSc1nc(-c2ccccc2Cl)ns1)Nc1ccc2c(c1)OCO2

>  <property name>
inhibition

>  <readout units>
%

>  <observed result>
-1.67

$$$$
>  <compound>
COc1ccc(O)c(C(=O)c2cc(C#N)c(=O)n(-c3ccc(Oc4ccccc4)cc3)c2)c1

>  <property name>
inhibition

>  <readout units>
%

>  <observed result>
9.41

$$$$
>  <compound>
CCOc1ccc(N(CC)S(=O)(=O)c2cc(Br)cc3c2N(C(=O)C2CC2)CC3)cc1

>  <property name>
inhibition

>  <readout units>
%

>  <observed result>
1.74

$$$$
>  <compound>
Fc1ccc2[nH]c(-c3ccc(-c4cccc(CN5CCN(CCN6CCOCC6)CC5)c4)cc3)nc2c1

>  <property name>
inhibition

>  <readout units>
%

>  <observed result>
1.99

$$$$
>  <compound>
N#Cc1ccnc(-c2ccc(CNC3CCN(CC4Cn5c(=O)ccc6ccc(F)c4c65)CC3)cc2)c1 (centres undefined)

>  <property name>
inhibition

>  <readout units>
%

>  <observed result>
4.88

$$$$

====

system under test: Hexose transporter 1 (Plasmodium falciparum) (UniProt O97467)
test summary: ST_JUDE_LEISH: Cytotoxicity at 2uM final concentration against transgenic Leishmania Mexicana promastigotes LmPfHT that are glucose transport deficient and complemented with the Plasmodium falciparum hexose transporter. Activity is measured by DNA content using SYBR green in vitro
Type: functional
We use 5% as the dividing line for inhibition: on or above the line is yes (1), below is no (0).

>  <compound>
O=C(NC12CC3CC(CC(C3)C1)C2)C(=O)c1c[nH]c2ccccc12

>  <system under test>
Hexose transporter 1 (Plasmodium falciparum) (UniProt O97467)

>  <class name>
no (0)

$$$$
>  <compound>
c1ccc(-c2ccc(CNCCCNc3nc4ccccc4[nH]3)cc2)cc1

>  <system under test>
Hexose transporter 1 (Plasmodium falciparum) (UniProt O97467)

>  <class name>
yes (1)

$$$$
>  <compound>
Nc1nc(N)c2cc(NC(=O)c3ccc(Cl)c(Cl)c3)ccc2n1

>  <system under test>
Hexose transporter 1 (Plasmodium falciparum) (UniProt O97467)

>  <class name>
no (0)

$$$$
>  <compound>
COc1cc(NC(=O)c2ccc(-c3ccccc3)cc2)ccc1OCCCN1CCC(c2ccccc2)CC1

>  <system under test>
Hexose transporter 1 (Plasmodium falciparum) (UniProt O97467)

>  <class name>
no (0)

$$$$
>  <compound>
COc1ccc(CCC(C)(C)NCC(O)c2cccc(C(F)(F)F)c2)cc1 (stereo not given)

>  <system under test>
Hexose transporter 1 (Plasmodium falciparum) (UniProt O97467)

>  <class name>
no (0)

$$$$
>  <compound>
COc1cc2ccccc2cc1CCNCCCCNCCc1cc2ccccc2cc1OC

>  <system under test>
Hexose transporter 1 (Plasmodium falciparum) (UniProt O97467)

>  <class name>
yes (1)

$$$$
>  <compound>
CC(=O)N1N=C(c2ccc(F)cc2)Sc2c1nc(-c1ccccc1)n2C(C)=O

>  <system under test>
Hexose transporter 1 (Plasmodium falciparum) (UniProt O97467)

>  <class name>
yes (1)

$$$$
>  <compound>
CCOc1cc(CC)ccc1C1CCN(CCCCNC(=O)c2ccc(NC(=O)c3ccc(C#N)cc3)cc2)CC1

>  <system under test>
Hexose transporter 1 (Plasmodium falciparum) (UniProt O97467)

>  <class name>
no (0)

$$$$
>  <compound>
O=C(/C=C/c1c[nH]c2ccccc12)NCCCCCN1CCC(c2c[nH]c3ccccc23)CC1

>  <system under test>
Hexose transporter 1 (Plasmodium falciparum) (UniProt O97467)

>  <class name>
no (0)

$$$$
